Biological target: Ba/F3-FGFR1-transfected cells (Homo sapiens, UniProt P11362)
Construct: BAF3-FGFR1 (MIN IL3) pIC50; other: minus IL3
Sequence (P11362 whole entry, change not shown): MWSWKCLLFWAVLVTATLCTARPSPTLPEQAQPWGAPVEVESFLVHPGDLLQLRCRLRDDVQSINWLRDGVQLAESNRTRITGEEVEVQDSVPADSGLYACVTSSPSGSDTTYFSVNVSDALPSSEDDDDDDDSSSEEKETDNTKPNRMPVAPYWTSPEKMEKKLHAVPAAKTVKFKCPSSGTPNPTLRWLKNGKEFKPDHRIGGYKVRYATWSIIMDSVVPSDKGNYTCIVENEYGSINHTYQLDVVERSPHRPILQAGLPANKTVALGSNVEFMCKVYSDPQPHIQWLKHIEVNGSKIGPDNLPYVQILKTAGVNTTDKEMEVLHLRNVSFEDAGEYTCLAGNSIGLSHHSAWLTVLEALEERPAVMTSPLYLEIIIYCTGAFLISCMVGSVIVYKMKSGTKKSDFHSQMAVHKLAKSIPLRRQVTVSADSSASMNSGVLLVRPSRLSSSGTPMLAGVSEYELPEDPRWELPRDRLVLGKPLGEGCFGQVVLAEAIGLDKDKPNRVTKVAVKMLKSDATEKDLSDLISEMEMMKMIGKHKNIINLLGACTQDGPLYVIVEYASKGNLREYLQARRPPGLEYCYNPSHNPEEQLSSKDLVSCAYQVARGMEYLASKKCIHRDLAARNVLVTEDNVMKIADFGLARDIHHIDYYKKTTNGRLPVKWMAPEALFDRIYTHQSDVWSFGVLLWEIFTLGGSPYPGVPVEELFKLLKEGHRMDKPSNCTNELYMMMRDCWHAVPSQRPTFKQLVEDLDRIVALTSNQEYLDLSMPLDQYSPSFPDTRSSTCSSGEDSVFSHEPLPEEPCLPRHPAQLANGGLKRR
Test: Ba/F3-FGFR1 (minus IL3) cellular proliferation assay, Alamar Blue
Assay type: cell-based
Counter-ions that a name gives are not always drawn.
Consider the following molecules; for each one, report its BAF3-FGFR1 (MIN IL3) pIC50.
Give bare numbers.

Solved entries (count: 3):
>>> value_observed("COc1cc(OC)cc(N(Cc2ncc[nH]2)c2ccc3ncc(-c4cn[nH]c4)nc3n2)c1")
8.27
>>> value_observed("COc1cc(OC)cc(N(CC2CCCOC2)c2ccc3ncc(-c4cnn(C)c4)nc3n2)c1 (stereo not shown)")
6.72
>>> value_observed("COc1cc(OC)cc(N(Cc2ncc[nH]2)c2ccc3ncc(-c4cnn(C)c4)nc3n2)c1 [24-sulphate salt]")
8.29

# BAF3-FGFR1 (MIN IL3) pIC50 lookup, item `COc1cc(OC)cc(N(Cc2nncn2CCO)c2ccc3ncc(-c4cnn(C)c4)nc3n2)c1`
6.15
